Reference source for all entries: paper PMC6309207

Molecular target: T1, hAIPL1 R302L mutant, His6-tagged (human, UniProt Q9NZN9 1-384, R302L)
T1 sequence (looked up): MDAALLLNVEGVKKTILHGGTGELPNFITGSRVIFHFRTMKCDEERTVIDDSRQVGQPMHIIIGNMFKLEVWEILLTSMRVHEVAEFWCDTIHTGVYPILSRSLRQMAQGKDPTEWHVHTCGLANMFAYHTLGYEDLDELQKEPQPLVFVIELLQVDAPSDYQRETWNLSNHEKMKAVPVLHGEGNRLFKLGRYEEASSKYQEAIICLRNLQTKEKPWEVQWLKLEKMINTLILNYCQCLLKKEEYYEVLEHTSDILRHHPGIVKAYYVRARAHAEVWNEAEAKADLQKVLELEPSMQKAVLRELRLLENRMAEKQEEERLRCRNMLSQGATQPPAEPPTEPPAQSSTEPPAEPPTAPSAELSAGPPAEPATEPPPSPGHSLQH
Assay: FRET or BRET
No end group written: not given here. *: point of attachment. Farnesyl = CC(C)=CCC/C(C)=C/CC/C(C)=C/C*
quantity_measured: pKd
Worth noting: pKd values are minus log10 of concentrations stated in mol/L.

Entry under test: GAPASKSC(Farnesyl) (also: Cys carboxymethylated, AMCA-X conjugated) [AMCA-labeled C-terminal peptide of mouse PDE6A, S-farnesylated and carboxymethylated] . Its pKd was 6.80
